Reference source for all entries: patent EP0745595A1

Listed here are compounds together with their documented Herbicidal effect rating, ORYSAT.
# System: ORYZA SATIVA, L. TEBONNET
# procedure_summary: Rice tolerance to post-transplant applications under flooded paddy conditions, ORYSAT (Rice, Tebonnet)
# Assay type: in vivo
# setup_conditions: 0.063 kg/ha, post-transplant rice, 3-4 weeks after treatment

compound: COC(=O)Cn1c(=O)n(CC(=O)OC)c(=O)n(-c2cc(Oc3ccc(Cl)cc3Cl)ccc2[N+](=O)[O-])c1=O [Compound 19]
Herbicidal effect rating, ORYSAT: 1.0
//
compound: CC(C)OC(=O)Cn1c(=O)n(C)c(=O)n(-c2cc(Oc3ncc(C(F)(F)F)cc3Cl)ccc2Br)c1=O [Compound 44]
Herbicidal effect rating, ORYSAT: 1.0
//
compound: COC(=O)Cn1c(=O)n(C)c(=O)n(-c2cc(Oc3ccc(C(F)(F)F)cc3Cl)ccc2Cl)c1=O [Compound 39]
Herbicidal effect rating, ORYSAT: 2.5
//
compound: COC(=O)Cn1c(=O)n(C)c(=O)n(-c2cc(Oc3ncc(C(F)(F)F)cc3Cl)ccc2Br)c1=O [Compound 45]
Herbicidal effect rating, ORYSAT: 2.0
//
compound: COC(=O)Cn1c(=O)n(C)c(=O)n(-c2cc(Oc3cccc(Cl)c3Cl)ccc2[N+](=O)[O-])c1=O [Compound 22]
Herbicidal effect rating, ORYSAT: 0.0
//
compound: COC(=O)Cn1c(=O)n(C)c(=O)n(-c2cc(Oc3ccc(Cl)cc3Cl)ccc2[N+](=O)[O-])c1=O [Compound 18]
Herbicidal effect rating, ORYSAT: 2.0
//
compound: COC(=O)Cn1c(=O)n(C)c(=O)n(-c2cc(Oc3ccc([S+](C)[O-])cc3Cl)ccc2[N+](=O)[O-])c1=O (stereo not shown) [Compound 36]
Herbicidal effect rating, ORYSAT: 0.0
//
compound: COC(=O)Cn1c(=O)n(C)c(=O)n(-c2cc(Oc3ccc(Cl)cc3Cl)ccc2Br)c1=O [Compound 43]
Herbicidal effect rating, ORYSAT: 2.0
//
compound: COC(=O)Cn1c(=O)n(C)c(=O)n(-c2cc(Oc3ccc(Cl)cc3F)ccc2[N+](=O)[O-])c1=O [Compound 23]
Herbicidal effect rating, ORYSAT: 2.0
//
compound: COC(=O)Cn1c(=O)n(C)c(=O)n(-c2cc(Oc3ccc(Cl)c(Cl)c3Cl)ccc2[N+](=O)[O-])c1=O [Compound 26]
Herbicidal effect rating, ORYSAT: 2.0
//
compound: C=CCn1c(=O)n(CC(=O)OCC)c(=O)n(-c2cc(Oc3ccc(C(F)(F)F)cc3Cl)ccc2[N+](=O)[O-])c1=O [Compound 13]
Herbicidal effect rating, ORYSAT: 2.0
//
compound: COC(=O)Cn1c(=O)n(C)c(=O)n(-c2cc(Oc3c(F)cc(C(F)(F)F)cc3Cl)ccc2[N+](=O)[O-])c1=O [Compound 16]
Herbicidal effect rating, ORYSAT: 3.5
//
compound: COC(=O)Cn1c(=O)[nH]c(=O)n(-c2cc(Oc3ccc(Cl)cc3Cl)ccc2[N+](=O)[O-])c1=O [Compound 14]
Herbicidal effect rating, ORYSAT: 0.0
